Provenance of the data: the RNAGym collection of RNA variant scans (doi:10.7554/elife.90254)

B1: LINE1-full (parent)
chain: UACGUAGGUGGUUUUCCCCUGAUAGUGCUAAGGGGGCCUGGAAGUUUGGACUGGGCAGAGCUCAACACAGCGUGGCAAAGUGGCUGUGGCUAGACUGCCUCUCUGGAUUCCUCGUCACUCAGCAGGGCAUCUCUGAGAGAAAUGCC

Variants of: B1
Test: self-cleavage, relative activity (ratio to wild type); higher = more cleavage; in vitro, sequencing; the parent is a self-cleaving ribozyme
Each record's self-cleavage is compared with 0: < 0.2; 1: ≥ 0.2 and < 0.8; 2: ≥ 0.8 to give its class.

VARIANT_NOTATION	CLASS
A92C C128U	1
U96C U130C	1
A121U A142U	2
U52A G55A	1
A22U U85C	1
G40U U47A	2
A69C A138G	0
U100C U132C	2
U108C A142G	2
A67G A79C	1
A64G U130A	1
A31G A129U	2
U23C U132A	2
G10A U62C	0
A69G C146U	1
U9C A64G	1
G49U A65C	0
A64G A142G	1
C38U A142G	2
A43U U87A	0
U96A G126A	0
A31G A69U	0
A65C U119A	0
U13G A79U	1
A42G A121C	2
G21A U102C	2
A67G A78G	1
U112G C116A	2
U12G A42C	2
A69U U132C	0
A65G A94G	0
A59G U85A	0
